Test system: HeLa
Assay name: ATP Assay (CellTiter-Glo), cellular ATP levels as surrogate for cell viability
Type: cell-based, human
Condition details: Homo sapiens, HeLa, 48 h, read-out: EC50 HeLa
Method: ATP Assay. […] At that time, media was removed and replaced with a solution of CellTiter-Glo reagent (Promega) in PBS. After ten minutes, luminescence was read using an EnVision multilabel plate reader (Perkin-Elmer) and signal intensity was calculated relative to in-plate DMSO control wells. We next sought to determine the performance of the synthetic analogs relative to PL in cells. […]
Metric: pEC50
Numbers only, as −log10 of the molar value.

Note pEC50 for the compound shown: COc1cc(/C=C/C(=O)N2CCC=CC2=O)cc(OC)c1OC [compound 1, piperlongumine, reference compound]
5.15

----------
System: HeLa
Assay name: ATP Assay (CellTiter-Glo), cellular ATP levels as surrogate for cell viability
Type: cell-based, human
Condition details: Table 2; cellular ATP levels, 48 h; read-out: EC50 HeLa
Metric: EC50

Solved entries:
Consider the compound COc1cc(/C=C/C(=O)N2CC(c3cccs3)C=CC2=O)cc(OC)c1OC (centres unmarked) and give its recorded EC50.
15 µM

For the compound COc1cc(/C=C/C(=O)N2CCCCC2=O)cc(OC)c1OC , report EC50.
> 20 µM

Please give measured EC50 of the following entry: COc1cc(/C=C/C(=O)N2CCC=C(C)C2=O)cc(OC)c1OC
> 20 µM

Give EC50 for the following compound: C/C(=C\C(=O)N1CCC=CC1=O)c1ccccc1
> 20 µM

Please list EC50 recorded for the compound COc1cc2c(c(OC)c1OC)CCC(C(=O)N1CCC=CC1=O)=C2
> 20 µM

Quickly give me recorded EC50 for COc1cc(/C=C/C(=O)N2CCC=C(c3ccccc3)C2=O)cc(OC)c1OC
> 20 µM

Report EC50, nothing else, for this compound: COc1cc(/C=C/C(=O)N2C(=O)C=CCC2c2ccccc2)cc(OC)c1OC (centres unmarked)
6.8 µM

Determine from records and report EC50 for O=C1C=CCCN1C(=O)c1cc2ccccc2s1
> 20 µM

Look up and report measured EC50 for this entry: COc1cc(/C=C/C(=O)N2CCC(C)=CC2=O)cc(OC)c1OC
> 20 µM

Specify measured EC50 for O=C1C=CCCN1C(=O)/C=C/c1ccccc1Cl .
7.5 µM

# next compound below
Dear colleague, please send me the reported EC50 for O=C1C=CCCN1S(=O)(=O)/C=C/c1ccccc1 when you can.
4.1 µM

Origin of the recorded values: patent US9108923B2
